test system: HepG2; assay: GSK_TCMDC: Percent inhibition of human HepG2 cell line. Test compounds present at 10uM.; format: functional
Assay readout: Inhibition (%)
Number in %, nothing else.

Entry CCCC(C)Nc1nc(C)cc(NCCC(=O)Nc2ccc(OC)cc2)n1.O=C(O)C(F)(F)F (stereo not drawn) has what Inhibition?
12

Requested read-out: Inhibition. Entry: "COc1cc(C(=O)Nc2ccc3nc(N4CCN(C)CC4)cc(C)c3c2)cc(OC)c1OC"
18

What measured Inhibition goes with CN(C)c1ccc(-c2csc(C(=O)NC3CCCCN(CCC(C)(C)C)C3)c2)cc1.O=C(O)C(F)(F)F (stereo not drawn) ?
10

# lookup: Inhibition of "O=C(O)C(F)(F)F.O=S(=O)(NCCN1CCCC1)c1ccc(-c2ccc(CNCc3ccccc3)cc2)cc1"
47

# get_value(readout='Inhibition', item= "O=C(Nc1cccc(-c2cccc(CN3CCCC3)c2)c1)c1ccc(Cl)cc1.O=C(O)C(F)(F)F" )
50

Bench note: what Inhibition did "Cc1ccc(Nc2nc3cc(N(C)c4ccnc(Nc5cccc(CS(C)(=O)=O)c5)n4)ccc3o2)cc1.O=C(O)C(F)(F)F" show?
0

Tell me the measured Inhibition of "Cc1cc(C)n2nc(C(=O)Nc3cc(C(F)(F)F)ccc3N3CCOCC3)nc2n1" , please.
2

Return reported Inhibition; argument: COc1ccccc1-c1csc(C(=O)NCC2CCN(Cc3ccc(C(C)C)cc3)C2)c1.O=C(O)C(F)(F)F (stereo not drawn)
24

###

system: HepG2; assay: GSK_TCMDC: Percent inhibition of human HepG2 cell line. Test compounds present at 10uM.; assay type: functional
Just a reminder that ties go to label 0: only Inhibition strictly below 20% counts as label 1.

Cc1cc(N2CCCC2)nc(Nc2ccc(NC(=O)C3CCCC3)cc2)n1; label 0
CCOc1cc(Cc2cnc(N)nc2N)cc(OC)c1OC; label 1
CS(=O)(=O)O.CSc1ccc2ccccc2c1CNCCCCCCNCc1c(SC)ccc2ccccc12; label 0
Cc1ccc(F)cc1S(=O)(=O)Nc1cccc(CCN2CCC(N3CCCCC3)CC2)c1; label 1
CCOC(=O)C1=C(C)NC(C)=C(C(=O)OCC)C1(C(=O)OCc1ccccc1)c1cccc(C(F)(F)F)c1; label 1

Check if Inhibition falls below 20% for "CC1(C)NC(N)=NC(=N)N1OCc1cc(Cl)c(Cl)cc1CON1C(=N)N=C(N)NC1(C)C" .
label 0

is_below(Inhibition, 20%) for "NC(=O)C1CCN(Cc2ccc(-c3cccc(-c4nc5cc(F)ccc5[nH]4)c3)cc2)CC1.O=C(O)C(F)(F)F" ?
label 1

# TODO verify Inhibition < 20% strictly for this compound: "COc1cc2c(Nc3ccc(NC(=O)c4ccccc4)cc3)ncnc2cc1OCCCN1CCOCC1"
label 1

Find out if reported Inhibition for "CCc1cn2c3c(cc(C(=O)N[C@@H](Cc4ccccc4)[C@H](O)CNC(C)C)cc13)N(C)S(=O)(=O)C2.O=CO" is less than 20%
label 1

###

test system: Plasmodium falciparum; assay: GSK_TCMDC: Inhibition of Plasmodium falciparum 3D7 in whole red blood cells, using parasite LDH activity as an index of growth. Test compounds present at 2uM; format: functional
Catalogue of Inhibition values
Answer format: numeric, % implied, no suffix.

CN(C)[C@@H]1C(O)=C(C(N)=O)C(=O)[C@@]2(O)C(O)=C3C(=O)c4c(O)ccc(C#Cc5ccccn5)c4C[C@H]3C[C@@H]12.Cl; 92
COc1cccc(CN2CCCC(OC(c3ccc(F)cc3)c3ccc(F)cc3)C2)c1O (centres undefined); 95

Which Inhibition is listed for "Cc1nc(Nc2ccc(F)cc2)nc(N2CCc3ccccc3[C@@H]2C)c1C.Cl" ?
92

# get_value(readout='Inhibition', item= "CC(C)(C)c1ccc(CN2CCC(CNC(=O)c3cc(-c4ccccc4)nc4ccccc34)CC2)cc1" )
89

Give the measured Inhibition of "COc1ccc2ncc(Cl)c(CCN3C[C@H](CNCc4ccc5c(n4)NC(=O)CS5)[C@H](O)C3)c2n1.Cl" .
94

Query: Inhibition; subject: COc1cc(Cc2cnc(N)nc2N)cc(OC)c1OC [TRIMETHOPRIM]
88

Data request, read-out Inhibition, for "CN1CCC(N(Cc2ccc(-c3ccc(Cl)cc3)cc2)C(=O)Cn2c(CCc3cccc(F)c3F)cc(=O)c3ccccc32)CC1.O=C(O)C(O)C(O)C(=O)O"
97

Inhibition for "CCOc1ccc2nc(NC(=O)c3csnn3)sc2c1" ?
100

Which Inhibition value belongs to COc1cc(NC(=O)N2CCOC(CCN3CCC4(CCc5ccccc54)CC3)(c3ccc(Cl)c(Cl)c3)C2)cc(OC)c1 (centres undefined) ?
87

###

Quick reference: Inhibition of the listed items.
system: HepG2; assay: GSK_TCMDC: Percent inhibition of human HepG2 cell line. Test compounds present at 10uM.; type: functional
Entry rule: numbers only, all in %.

The cases that follow already have their Inhibition on record.
CCOc1cc(O)c(-c2nc(N)ncc2-c2ccc3c(c2)OCCO3)cc1CC; 0
CS(=O)(=O)c1ccc(CCNCc2ccc(-c3ccc(CN(C(=O)C4CCCC4)C4CCN(Cc5ccccc5)CC4)cc3)nc2)cc1.O=C(O)C(F)(F)F; 24
COc1ccc(C(=O)CCC(=O)N(CCC2CCCN2C)Cc2ccc(-c3ccc(CNCCc4ccc(S(C)(=O)=O)cc4)cn3)cc2)cc1F.O=C(O)C(F)(F)F (centres undefined); 13

Recorded Inhibition of "COc1ccccc1-c1nc2nc(N)nc(N)c2nc1-c1ccccc1OC" , please.
27

###

system: Plasmodium falciparum; test: GSK_TCMDC: Inhibition of Plasmodium falciparum Dd2 in whole red blood cells, using parasite LDH activity as an index of growth. Test compounds present at 2uM; type: functional
Each entry gets n if its Inhibition stays under 60%, and y if its Inhibition is 60% or above.

Reference set (2 entries):
O=C(Nc1ccc(Cl)cc1)Nc1cccc(CCNCc2ccccc2)c1.O=C(O)C(F)(F)F; n
CC1CCCN(Cc2cc(Cl)cc(Cl)c2O)C1 (stereo not given); y

Check if Inhibition >= 60% (inclusive). Item: "COc1ccc(C(=O)NCCCCN2CCC(c3ccc4c(c3OC)CCCC4)CC2)cc1-c1ccc(C(F)(F)F)cc1"
n

For this compound, is measured Inhibition 60% or higher? "C=CC[C@H](C[C@H](O)[C@H](Cc1ccccc1)NC(=O)c1nn(-c2ccccc2)nc1C)C(=O)NC1CCCCC1"
n

State whether the measured Inhibition reaches 60%, counting equality as reaching it, for "O=C(Nc1cn(-c2ccc(OCc3cccc(F)c3)c(Cl)c2)c2ncncc12)c1ccncc1"
y

###

tested on: Plasmodium falciparum; experiment: GSK_TCMDC: Inhibition of Plasmodium falciparum Dd2 in whole red blood cells, using parasite LDH activity as an index of growth. Test compounds present at 2uM; assay type: functional
// label = 1 if Inhibition is not less than 50%, otherwise -1

For orientation, consider the following solved cases.
CN(C)c1cc(NC(=O)Nc2ccc(SC(F)(F)F)cc2)c2ccccc2n1; 1
Cc1ccc(NC(=O)NC2CCN(c3ccnc4ccccc34)C2)cc1.O=C(O)C(F)(F)F (configuration not stated); -1
O=C(NC1CCN(Cc2ccccc2O)C1)c1cccc(C(F)(F)F)c1.O=C(O)C(F)(F)F (configuration not stated); 1

Now consider the entry below.
Answer whether Inhibition of "CCCNCc1ccc(-c2ccc(CN(C(=O)c3nn(-c4ccccc4)nc3C)C3CC3)cc2)nc1.O=C(O)C(F)(F)F" is greater than or equal to 50%.
-1

###

test system: Plasmodium falciparum; assay: GSK_TCMDC: Inhibition of Plasmodium falciparum Dd2 in whole red blood cells, using parasite LDH activity as an index of growth. Test compounds present at 2uM; assay type: functional
Reported Inhibition by item:
I only need the number, in %, no unit after it.

For Plasmodium falciparum, provide Inhibition of "Cc1ccc(NC(=O)c2ccnc(N3CCN(c4ccncc4)CC3)c2)cc1F.O=C(O)C(F)(F)F" please.
12

For Plasmodium falciparum, provide Inhibition of "CO/C(=C\C=C/c1cc2cc(Cl)c(Cl)cc2[nH]1)C(=O)NC1CC(C)(C)N(C)C(C)(C)C1" please.
34

# query: Inhibition | item "CC(C)COc1ccc(Cl)cc1Cc1nc(-c2nc3ccc(CN(C)C)cc3[nH]2)co1.Cl" | system: Plasmodium falciparum
87

Identify the measured Inhibition of "CNc1ccc(CNCc2cccc(-c3ccc(-c4nc5ccccc5[nH]4)s3)c2)cc1.O=C(O)C(F)(F)F" for Plasmodium falciparum.
77

Tell me reported Inhibition for CCCCCCCC1CC(CC(=O)Nc2ccnc3ccc(OC)cc23)CN1 (stereo not given) , tested with Plasmodium falciparum.
58

###

test system: HepG2; experiment: GSK_TCMDC: Percent inhibition of human HepG2 cell line. Test compounds present at 10uM.; assay type: functional
This section presents compounds with their documented Inhibition values.
Reply with just the number (in %).

Cc1cnc(Nc2cccnc2)nc1Nc1ccccc1C(=O)NC(C)C; 9

Which Inhibition is reported with HepG2 for this entry: "CCOCn1c(-c2ccccc2)cc2c3c(N)nc(N)nc3ccc21" ?
62

Query the reported Inhibition for HepG2; item: "CCc1cn2c3c(cc(C(=O)N[C@@H](Cc4ccccc4)[C@H](O)CNC(C)(C)c4cccc(OC)c4)cc13)N(C)S(=O)(=O)C2.O=CO"
27

State its Inhibition on HepG2: CCOC(=O)C(C(C)=O)C(c1ccccc1)C(C(C)=O)C(=O)OCC (stereo not given)
6

Record CC(C)c1ccc(NC(=O)c2ccc(C(=O)NC3CCN(Cc4ccsc4)C3)cc2)cc1.O=C(O)C(F)(F)F (stereo not given) : what is its Inhibition with HepG2?
17

API: value(readout= Inhibition, system= HepG2, query= CCCC(C)NC(=O)[C@H](CC1CCCCC1)NC(=O)c1ccc(O)c(-c2ccc(OC)cc2)c1 (stereo not given in full) )
3

Test system HepG2; read-out Inhibition; what value for "COc1ccccc1NC(=O)Nc1cccc(-c2cccc(-c3nc4cccc(C)c4[nH]3)c2)c1" ?
11

All values here come from ChEMBL document CHEMBL1157539.
